protocol-text: RP, Waters CORTECS T3, 100 × 2.1 mm, 2.7 µm, 0.15 mL/min, estimated dead time 1.5 min; A: water + 0.1% formic acid, pH 3; B: methanol + 0.1% formic acid, pH 3; gradient (min/%B) 0/5 5/5 25/95 25.1/100 35/100 35.1/5 45/5
test-settings: stereoisomer not certain
metric-name: LC retention time (min)

[a] O=C(O)c1cc(=O)c2ccccc2[nH]1 [4-HYDROXY-2-QUINOLINECARBOXYLIC ACID]
[b] CC(=O)NC(CCC(=O)O)C(=O)O (racemic)
Please state the entry with greater LC retention time among a and b . Select an item and report its label.
a

[P] COc1cc(C=CC(=O)O)ccc1O [FERULATE]
[Q] CSCCC(NC(C)=O)C(=O)O (racemic)
// which entry reports the smaller LC retention time, P or Q ? Select an item and report its label.
Q

====

protocol-text: RP, Waters ACQUITY UPLC BEH C18, 100 × 2.1 mm, 1.7 µm, 0.1 mL/min, estimated dead time 2.2 min; A: water + 0.1% formic acid, pH 3; B: methanol + 0.1% formic acid, pH 3; gradient (min/%B) 0/5 5/5 25/100 30/100 30.1/5 35/5
test-settings: stereoisomer not certain
metric-name: LC retention time (min)

Answered cases to consult:
compound	quantitative-readout
O=C1CCNC(=O)N1 [5,6-DIHYDROURACIL]	2.76
CCC(NC(=O)CCC(N)C(=O)O)C(=O)NCC(=O)O (stereo unspecified)	2.74
Nc1cccc2ccccc12	16.5
O=c1cc[nH]c(=O)[nH]1	2.76
Nc1ncnc2c1ncn2C1CC(O)C(COP(=O)(O)O)O1 (stereo unspecified)	2.74
Cn1cnc(=N)c2[nH]cnc21	2.69
NC(=O)c1cccnc1 [NICOTINAMIDE]	3.66
O=c1[nH]c(=O)c2[nH]c(=O)[nH]c2[nH]1 [URATE]	2.74

[I] CC12CCC(=O)C=C1CCC1C2C(O)CC2(C)C1CCC2(O)C(=O)CO (stereo unspecified)
[II] Nc1nc2c(ncn2C2OC3COP(=O)(O)OC3C2O)c(=O)[nH]1 (stereo unspecified) [GUANOSINE 3',5'-CYCLIC MONOPHOSPHATE]
// which entry reports the smaller LC retention time, I or II ? Select an item and report its label.
II
(II: 7.01 min, I: 21.1 min)

====

The reader will find reported LC retention time values listed item by item below.
protocol-text: RP, Waters CORTECS T3, 100 × 2.1 mm, 2.7 µm, 0.3 mL/min, estimated dead time 0.73 min; A: water + 0.1% formic acid, pH 3; B: methanol + 0.1% formic acid, pH 3; gradient (min/%B) 0/0 1/0 6/5 30/100 35/100 35.1/0 40/0
test-settings: stereoisomer not certain
Field: numeric (min). Do not append units.

compound	unit-text	LC retention time
CC1NC(=O)NC1CCCCCC(=O)O (stereo not drawn)	min	14.3
CCCCC(CC)COC(=O)c1ccccc1C(=O)OCC(CC)CCCC (stereo not drawn) [BIS(2-ETHYLHEXYL)PHTHALATE]	min	30

Consider the compound CC1NCCc2cc(O)c(O)cc21 (stereo not drawn) [1-METHYL-6,7-DIHYDROXY-1,2,3,4-TETRAHYDROISOQUINOLINE] and give its measured LC retention time.
0.92

Entry source: the RepoRT retention time repository (doi:10.1016/j.jchromb.2020.122105)
